So I've got a bunch of substances here, and I need their % Inhib (PCSK9 mRNA) values.
# Test system: PCSK9 mRNA
# Assay type: cell-based, human
# runParameters: Hep3B cells, 100 nM, relative to untreated control cells; 0 = no reduction observed
Strand notation (5' to 3'): a small letter for the sugar, then the base; units joined by * are phosphorothioate-linked, units joined directly phosphodiester-linked; [ ] holds rarer units or linkages, { } end groups; capitals alone tell only the bases. e = 2'-O-(2-methoxyethyl) (MOE); [5mC] = 5-methylcytosine; d = 2'-deoxy (DNA)
Answer with the figure and its unit, nothing else.

Below, each entry is followed by its recorded % Inhib (PCSK9 mRNA) result.
| substance | recordedMetric | experimentalResult |
| --- | --- | --- |
| 400307 (e[5mC]*eG*dG*d[5mC]*d[5mC]*dG*d[5mC]*dT*dG*dA*d[5mC]*d[5mC]*eA*e[5mC]; antisense) [compound 400307] | % Inhib (PCSK9 mRNA) | 76% |
| 400319 (e[5mC]*eG*dA*dA*dT*dA*dA*dA*d[5mC]*dT*d[5mC]*d[5mC]*eA*eG; antisense) [compound 400319] | % Inhib (PCSK9 mRNA) | 0% |

Shifting focus to the substance that follows.
Consider 400298 (antisense e[5mC]*eA*dT*dG*dG*dG*dG*d[5mC]*dA*dA*d[5mC]*dT*eT*e[5mC]) [compound 400298] . Its measured % Inhib (PCSK9 mRNA) is 0%

---

# System: PCSK9 mRNA
# assayDetails: Dose-dependent inhibition of PCSK9 in Hep3B cells with EC50 (Example 19, Table 76)
# Assay type: cell-based, human
# runParameters: 40 nM
Strand notation (5' to 3'): a small letter for the sugar, then the base; units joined by * are phosphorothioate-linked, units joined directly phosphodiester-linked; [ ] holds rarer units or linkages, { } end groups; capitals alone tell only the bases. e = 2'-O-(2-methoxyethyl) (MOE); [5mC] = 5-methylcytosine; d = 2'-deoxy (DNA)
recordedMetric: % Inhibition of PCSK9 (%)
One number for each entry, in %.

| substance | readingUnit | % Inhibition of PCSK9 |
| --- | --- | --- |
| 400308 (e[5mC]*e[5mC]*dG*dG*d[5mC]*d[5mC]*dG*d[5mC]*dT*dG*dA*d[5mC]*e[5mC]*eA; antisense) [compound 400308] | % | 40 |

Would you mind giving % Inhibition of PCSK9 for every substance in the list below?
1. 400331 (eG*e[5mC]*d[5mC]*dA*d[5mC]*dG*dT*dG*dG*dG*d[5mC]*dA*eG*e[5mC]; antisense) [compound 400331]
2. 400309 (e[5mC]*e[5mC]*d[5mC]*dG*dG*d[5mC]*d[5mC]*dG*d[5mC]*dT*dG*dA*e[5mC]*e[5mC]; antisense) [compound 400309]
3. 400353 (antisense eA*e[5mC]*dA*d[5mC]*d[5mC]*d[5mC]*dT*d[5mC]*dA*d[5mC]*d[5mC]*d[5mC]*e[5mC]*e[5mC]) [compound 400353]
4. 400352 (antisense e[5mC]*eA*d[5mC]*d[5mC]*d[5mC]*dT*d[5mC]*dA*d[5mC]*d[5mC]*d[5mC]*d[5mC]*e[5mC]*eA) [compound 400352]
5. 400330 (e[5mC]*e[5mC]*dA*d[5mC]*dG*dT*dG*dG*dG*d[5mC]*dA*dG*e[5mC]*eA; antisense) [compound 400330]
6. 400307 (e[5mC]*eG*dG*d[5mC]*d[5mC]*dG*d[5mC]*dT*dG*dA*d[5mC]*d[5mC]*eA*e[5mC]; antisense) [compound 400307]
7. 400327 (eG*eT*d[5mC]*d[5mC]*d[5mC]*d[5mC]*dA*dA*dA*dG*dT*d[5mC]*e[5mC]*e[5mC]; antisense) [compound 400327]

[63, 12, 43, 44, 69, 56, 49]

---

# Test system: PTP1B mRNA
# assayDetails: Dose response for human PTP1B in HuVEC cells, Primer Probe Set 3000 (Example 25, Table 87)
# Type: cell-based
# runParameters: PPS 3000, 10.0 nM
Strand notation (5' to 3'): a small letter for the sugar, then the base; units joined by * are phosphorothioate-linked, units joined directly phosphodiester-linked; [ ] holds rarer units or linkages, { } end groups; capitals alone tell only the bases. e = 2'-O-(2-methoxyethyl) (MOE); [5mC] = 5-methylcytosine; d = 2'-deoxy (DNA)
So I've got a bunch of substances here, and I need their % Inhibition of PTP1B mRNA values.
Give bare numbers, in %.

Below, each entry is followed by its recorded % Inhibition of PTP1B mRNA result.
| substance | % Inhibition of PTP1B mRNA / % |
| --- | --- |
| 399301 (antisense eG*eT*dG*dT*dG*d[5mC]*dA*d[5mC]*dA*d[5mC]*dA*dG*e[5mC]*eT) [compound 399301] | 93 |
| 399208 (antisense eA*eG*d[5mC]*dT*d[5mC]*dG*d[5mC]*dT*dA*d[5mC]*d[5mC]*dT*e[5mC]*eT) [compound 399208] | 85 |
| 399132 (antisense eG*eG*dG*d[5mC]*dT*dG*dA*dG*dT*dG*dA*d[5mC]*e[5mC]*e[5mC]) [compound 399132] | 76 |

Would you mind giving % Inhibition of PTP1B mRNA for every substance in the list below?
1. 399276 (antisense eG*eA*dG*dG*dT*dA*dT*d[5mC]*d[5mC]*d[5mC]*dA*dT*e[5mC]*eT) [compound 399276]
2. 399113 (antisense eG*eT*dT*dA*dG*dG*d[5mC]*dA*dA*dA*dG*dG*eG*e[5mC]) [compound 399113]
3. 398173 (antisense e[5mC]*dA*dG*d[5mC]*d[5mC]*dT*dG*dG*dG*d[5mC]*dA*e[5mC]) [compound 398173]

64
65
80

---

# Test system: PCSK9 mRNA
# Assay type: cell-based, human
# runParameters: Hep3B cells, 100 nM, relative to untreated control cells; 0 = no reduction observed
Strand notation (5' to 3'): a small letter for the sugar, then the base; units joined by * are phosphorothioate-linked, units joined directly phosphodiester-linked; [ ] holds rarer units or linkages, { } end groups; capitals alone tell only the bases. e = 2'-O-(2-methoxyethyl) (MOE); [5mC] = 5-methylcytosine; d = 2'-deoxy (DNA)
So I've got a bunch of substances here, and I need their % Inhib (PCSK9 mRNA) values.
One number for each entry, in %.

| substance | recordedMetric | experimentalResult |
| --- | --- | --- |
| 400320 (e[5mC]*e[5mC]*dG*dA*dA*dT*dA*dA*dA*d[5mC]*dT*d[5mC]*e[5mC]*eA; antisense) [compound 400320] | % Inhib (PCSK9 mRNA) | 0 |
| 400353 (antisense eA*e[5mC]*dA*d[5mC]*d[5mC]*d[5mC]*dT*d[5mC]*dA*d[5mC]*d[5mC]*d[5mC]*e[5mC]*e[5mC]) [compound 400353] | % Inhib (PCSK9 mRNA) | 19 |
| 400297 (antisense eA*eT*dG*dG*dG*dG*d[5mC]*dA*dA*d[5mC]*dT*dT*e[5mC]*eA) [compound 400297] | % Inhib (PCSK9 mRNA) | 0 |
| 400335 (e[5mC]*e[5mC]*dT*d[5mC]*dA*dG*dG*dG*dA*dA*d[5mC]*d[5mC]*eA*eG; antisense) [compound 400335] | % Inhib (PCSK9 mRNA) | 0 |
| 400357 (antisense eT*eG*dG*d[5mC]*dA*dG*d[5mC]*dA*dG*dG*dA*dA*eG*e[5mC]) [compound 400357] | % Inhib (PCSK9 mRNA) | 0 |

Would you mind giving % Inhib (PCSK9 mRNA) for every substance in the list below?
1. 400363 (antisense e[5mC]*e[5mC]*dG*dG*d[5mC]*dA*dG*d[5mC]*dA*dG*dA*dT*eG*eG) [compound 400363]
2. 400350 (antisense e[5mC]*e[5mC]*d[5mC]*dT*d[5mC]*dA*d[5mC]*d[5mC]*d[5mC]*d[5mC]*d[5mC]*dA*eA*eA) [compound 400350]
3. 400354 (antisense eG*eA*d[5mC]*dA*d[5mC]*d[5mC]*d[5mC]*dT*d[5mC]*dA*d[5mC]*d[5mC]*e[5mC]*e[5mC]) [compound 400354]

1. 8
2. 15
3. 19

Would you mind giving % Inhib (PCSK9 mRNA) for every substance in the list below?
1. 400337 (eG*eT*d[5mC]*d[5mC]*dT*d[5mC]*dA*dG*dG*dG*dA*dA*e[5mC]*e[5mC]; antisense) [compound 400337]
2. 400334 (e[5mC]*eT*d[5mC]*dA*dG*dG*dG*dA*dA*d[5mC]*d[5mC]*dA*eG*eG; antisense) [compound 400334]
3. 400336 (eT*e[5mC]*d[5mC]*dT*d[5mC]*dA*dG*dG*dG*dA*dA*d[5mC]*e[5mC]*eA; antisense) [compound 400336]
4. 400305 (antisense eG*e[5mC]*d[5mC]*dT*dG*dT*d[5mC]*dT*dG*dT*dG*dG*eA*eA) [compound 400305]

0
0
4
38
